Assign logRA to each entry below.
biological target: Acetylcholinesterase (Homo sapiens) (UniProt P22303)
Sequence (P22303 whole entry): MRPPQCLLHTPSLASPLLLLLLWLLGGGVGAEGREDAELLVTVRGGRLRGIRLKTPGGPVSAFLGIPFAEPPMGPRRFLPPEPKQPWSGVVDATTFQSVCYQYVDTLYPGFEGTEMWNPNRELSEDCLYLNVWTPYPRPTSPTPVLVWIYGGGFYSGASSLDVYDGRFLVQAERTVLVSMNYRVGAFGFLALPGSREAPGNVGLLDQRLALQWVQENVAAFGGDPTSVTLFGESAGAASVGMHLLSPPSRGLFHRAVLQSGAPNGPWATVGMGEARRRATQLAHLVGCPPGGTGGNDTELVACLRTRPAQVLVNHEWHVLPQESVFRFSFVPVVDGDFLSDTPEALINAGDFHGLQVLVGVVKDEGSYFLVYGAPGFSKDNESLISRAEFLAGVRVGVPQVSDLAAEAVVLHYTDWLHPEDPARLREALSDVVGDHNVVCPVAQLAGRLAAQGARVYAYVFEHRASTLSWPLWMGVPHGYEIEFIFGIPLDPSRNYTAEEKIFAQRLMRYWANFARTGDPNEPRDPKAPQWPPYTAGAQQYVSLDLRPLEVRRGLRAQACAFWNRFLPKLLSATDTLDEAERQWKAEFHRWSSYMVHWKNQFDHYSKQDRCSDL
Give bare numbers.

Before answering, review these 4 worked examples.
{"molecule": "CC1=CC2Cc3nc4cc(Cl)ccc4c(NCCCCCCCCNc4c5c(nc6ccccc46)CCCC5)c3C(C1)C2 (stereo not given)", "targetOrTestSystem": "Acetylcholinesterase (Homo sapiens) (UniProt P22303)", "logRA": 2.79}
{"molecule": "CCOC(=O)C1=C(C)Oc2nc3c(c(N)c2C1c1ccc(OC)c(OC)c1)CCCC3 (stereo not given)", "targetOrTestSystem": "Acetylcholinesterase (Homo sapiens) (UniProt P22303)", "logRA": -1.41}
{"molecule": "Cc1nc2nc3c(c(N)c2c(-c2ccccc2)c1C(=O)OC(C)C)CCCC3", "targetOrTestSystem": "Acetylcholinesterase (Homo sapiens) (UniProt P22303)", "logRA": -0.824}
{"molecule": "CCOC(=O)c1c(C)nc2nc3c(c(N)c2c1-c1ccc(Cl)cc1)CCCC3", "targetOrTestSystem": "Acetylcholinesterase (Homo sapiens) (UniProt P22303)", "logRA": -0.859}

Batch request: logRA per item, same order as input.
1. CC1=CC2Cc3nc4cc(Cl)ccc4c(NCCCCCCCNc4c5c(nc6ccccc46)CCCC5)c3C(C1)C2 (stereo not given)
2. CCOC(=O)C1=C(C)Oc2nc3c(c(N)c2C1c1ccncc1)CCC3 (stereo not given)
3. CC1=CC2Cc3nc4cc(Cl)ccc4c(NCCCCCCCNc4c5c(nc6cc(Cl)ccc46)CCCC5)c3C(C1)C2 (stereo not given)
4. CCOC(=O)C1=C(C)Oc2nc3c(c(N)c2C1c1ccc(Cl)cc1)CCCC3 (stereo not given)
5. CCOC(=O)C1=C(C)Oc2nc3c(c(N)c2C1c1ccncc1)CCCCC3 (stereo not given)

Output line:
2.78
-1.67
2.79
-1.17
-1.79

Input line: Return reported logRA; argument: CCOC(=O)C1=C(C)Oc2nc3c(c(N)c2C1c1ccccc1OC)CCC3 (stereo not given)
Output line: -2.12

###

molecular target: UniProtKB P22303
We use -0.7 as the dividing line for logRA: on or above the line is YES, below is NO.

Look over these answered cases.
{"smilesRepr": "CCOC(=O)c1c(C)nc2nc3c(c(N)c2c1-c1ccc(OC)cc1)CCCC3", "targetOrTestSystem": "UniProtKB P22303", "className": "NO"}
{"smilesRepr": "CCOC(=O)c1c(C)nc2nc3c(c(N)c2c1-c1ccc(F)cc1)CCCC3", "targetOrTestSystem": "UniProtKB P22303", "className": "YES"}
{"smilesRepr": "CCOC(=O)c1c(C)nc2nc3c(c(N)c2c1-c1ccncc1)CCCCC3", "targetOrTestSystem": "UniProtKB P22303", "className": "NO"}

Turning to the following compound.
Input line: Quick check: does c1ccc2c(NCCCCCCNc3c4c(nc5ccccc35)CCCC4)c3c(nc2c1)CCCC3 have logRA greater than or equal to -0.7?
Output line: YES

###

molecular target: Acetylcholinesterase (Homo sapiens)
Flag rule - logRA less than -1 flags Met; the remaining entries get Not met.

Look over these answered cases.
{"compound": "CCOC(=O)C1=C(C)Oc2nc3c(c(N)c2C1c1ccccc1OC)CCCCC3 (stereo not given)", "className": "Met"}
{"compound": "O=C(CNc1c2c(nc3ccccc13)CCCC2)NCCC1CCN(c2ccccc2)CC1", "className": "Not met"}
{"compound": "COc1ccc2c(c1)-c1nc3ccccc3c(N)c1C2", "className": "Met"}
{"compound": "Nc1c2c(nc3ccccc13)C[S+]([O-])CC2O (stereo not given)", "className": "Not met"}
{"compound": "CCOC(=O)C1=C(C)Oc2nc3c(c(N)c2C1c1ccc(C#N)cc1)CCCC3 (stereo not given)", "className": "Met"}
{"compound": "CCOC(=O)c1c(C)nc2nc3c(c(N)c2c1-c1ccc(OC)cc1)CCC3", "className": "Met"}

Input line: Find out if reported logRA for CCOC(=O)c1c(C)nc2nc3c(c(N)c2c1-c1ccc(OC)c(OC)c1)CCCC3 is less than -1
Output line: Not met

Input line: Here is the next compound: CC1=CC2Cc3nc4cc(Cl)ccc4c(NCCCN(C)CCCNc4c5c(nc6ccccc46)CCCC5)c3C(C1)C2 (stereo not given)
Output line: Not met

Input line: Here is the next compound: Nc1c2c(nc3cc(Cl)ccc13)-c1ccccc1C2
Output line: Met

Input line: Here is the next compound: CCOC(=O)C1=C(C)Oc2nc3c(c(N)c2C1c1ccc(OC)c(OC)c1)CCC3 (stereo not given)
Output line: Met

###

target: UniProtKB P22303
We use -1 as the dividing line for logRA: on or above the line is Y, below is N.

{"molecule": "CCOC(=O)c1c(C)nc2nc3c(c(N)c2c1-c1cccs1)CCCCC3", "targetOrTestSystem": "UniProtKB P22303", "className": "N"}

Input line: Quick check: does Nc1c2c(nc3ccccc13)-c1ccc(Cl)cc1C2 have logRA greater than or equal to -1?
Output line: N

Input line: Here is the next molecule: CCOC(=O)C1=C(C)Oc2nc3c(c(N)c2C1c1ccccc1OC)CCCC3 (stereo not given)
Output line: N

Input line: Here is the next molecule: Cc1ccc2c(c1)-c1nc3ccccc3c(N)c1C2
Output line: N

Input line: Here is the next molecule: CC1=CC2Cc3nc4ccccc4c(NCCCCCCCCNc4c5c(nc6ccccc46)CCCC5)c3C(C1)C2 (stereo not given)
Output line: Y

###

Assign logRA to each entry below.
target: Acetylcholinesterase (Homo sapiens) (UniProt P22303)
Give bare numbers.

{"molecule": "CCOC(=O)c1c(C)nc2nc3c(c(N)c2c1-c1ccccc1)CCCCC3", "logRA": -0.768}
{"molecule": "CC1=CC2Cc3nc4cc(Cl)ccc4c(NCCCN(C)CCCNc4c5c(nc6cc(Cl)ccc46)CCCC5)c3C(C1)C2 (stereo not given)", "logRA": 2.85}
{"molecule": "CCOC(=O)c1c(C)nc2nc3c(c(N)c2c1-c1ccccc1)CCC3", "logRA": -1.96}
{"molecule": "Nc1c2c(nc3ccccc13)CSCC2O (stereo not given)", "logRA": -0.852}

Input line: Could you share what logRA was measured for Clc1ccc2c(NCCCCCCNc3c4c(nc5cc(Cl)ccc35)CCCC4)c3c(nc2c1)CCCC3 , tested on Acetylcholinesterase (Homo sapiens) (UniProt P22303)?
Output line: 2.74

###

This section lists logRA readings for Acetylcholinesterase (Homo sapiens).
Give bare numbers.

Before answering, review these 8 worked examples.
{"molecule": "CC1=CC2Cc3nc4cc(Cl)ccc4c(NCCCCCCNc4c5c(nc6cc(Cl)ccc46)CCCC5)c3C(C1)C2 (centres undefined)", "targetOrTestSystem": "Acetylcholinesterase (Homo sapiens)", "logRA": 2.66}
{"molecule": "CCOC(=O)c1c(C)nc2nc3c(c(N)c2c1-c1cccc([N+](=O)[O-])c1)CCCC3", "targetOrTestSystem": "Acetylcholinesterase (Homo sapiens)", "logRA": -0.713}
{"molecule": "c1ccc2c(NCCCCCCCNc3c4c(nc5ccccc35)CCCC4)c3c(nc2c1)CCCC3", "targetOrTestSystem": "Acetylcholinesterase (Homo sapiens)", "logRA": 2.41}
{"molecule": "CCOC(=O)C1=C(C)Oc2nc3c(c(N)c2C1c1cccc([N+](=O)[O-])c1)CCCC3 (centres undefined)", "targetOrTestSystem": "Acetylcholinesterase (Homo sapiens)", "logRA": -1.16}
{"molecule": "CCOC(=O)c1c(C)nc2nc3c(c(N)c2c1-c1ccc(OC)c(OC)c1)CCCCC3", "targetOrTestSystem": "Acetylcholinesterase (Homo sapiens)", "logRA": -1.55}
{"molecule": "CC1=CC2Cc3nc4cc(Cl)ccc4c(NCCCCCCNc4c5c(nc6ccccc46)CCCC5)c3C(C1)C2 (centres undefined)", "targetOrTestSystem": "Acetylcholinesterase (Homo sapiens)", "logRA": 2.61}
{"molecule": "Fc1ccc2c(NCCCCCCNc3c4c(nc5cc(F)ccc35)CCCC4)c3c(nc2c1)CCCC3", "targetOrTestSystem": "Acetylcholinesterase (Homo sapiens)", "logRA": 2.57}
{"molecule": "CCOC(=O)c1c(C)nc2nc3c(c(N)c2c1-c1cccc(OC)c1)CCCC3", "targetOrTestSystem": "Acetylcholinesterase (Homo sapiens)", "logRA": -0.824}

Here is another molecule to look at.
Input line: Return reported logRA; argument: CCOC(=O)c1c(C)nc2nc3c(c(N)c2c1-c1ccncc1)CCCC3
Output line: -1

###

This section lists logRA readings for Acetylcholinesterase (Homo sapiens) (UniProt P22303).
Numbers only.

Before answering, review these 4 worked examples.
{"compound": "CCOC(=O)c1c(C)nc2nc3c(c(N)c2c1-c1cccn1C(C)=O)CCCC3", "logRA": -1.08}
{"compound": "Fc1ccc2c(NCCCCCCCCNc3c4c(nc5cc(F)ccc35)CCCC4)c3c(nc2c1)CCCC3", "logRA": 2.68}
{"compound": "CCOC(=O)C1=C(C)Oc2nc3c(c(N)c2C1c1ccccc1)CCCC3 (stereo not given)", "logRA": -1.08}
{"compound": "CCOC(=O)C1=C(C)Oc2nc3c(c(N)c2C1c1cccc(OC)c1)CCCCC3 (stereo not given)", "logRA": -1.86}

Batch request: logRA per item, same order as input.
1. CCOC(=O)c1c(C)nc2nc3c(c(N)c2c1-c1cccs1)CCCC3
2. CCOC(=O)c1c(C)nc2nc3c(c(N)c2c1-c1ccc(OC)cc1)CCCCC3
3. COc1cccc2c1Cc1c-2nc2ccccc2c1N
4. Nc1c2c(nc3ccccc13)CSCC2=O
5. c1ccc2c(NCCCCCCCCNc3c4c(nc5ccccc35)CCCC4)c3c(nc2c1)CCCC3
6. Fc1ccc2c(NCCCCCCCNc3c4c(nc5ccccc35)CCC4)c3c(nc2c1)CCC3

Output line:
-2.25
-1.02
-0.806
-0.745
2.32
0.647

Where these numbers come from: ChEMBL document CHEMBL1140601
